- measuredTarget: RSV F protein of subtype A (strain A2) on recombinant mKate-RSV (respiratory syncytial virus subtype A …, UniProt P03420 26-574)
- experimentDescription: cell-based or functional assay
measureName: Neut IC50 subtype A

{"binder": "ADI-18981 (antibody, V domains shown, full-length IgG; also called Antibody Number 329) VH: EVQLQESGSRLVKPSQTLSLTCSVSGGSLNAGGYLWSWIRQPPGKGLEWVGYIYPSGTTYYNPSLQSRISISQDRSRNQFSLSVASVTAADTAVYYCARCGNEYGEVHPFDIWGQGTTVTVSS VL: EIVLTQSPGTLSLSPGERATLSCRGSPIVGNNYLAWYQQKPGQAPRLLIYAASIRATGIPDRFSGSGSGTDFTLTISRLEPEDFAVYYCQQYGSSPWTFGQGTKVDIK", "observedValue": "> 10 µg/mL"}
{"binder": "ADI-18978 (antibody, V domains shown) VH: EVQLVESGGGVVQPGRSLRLSCEASGFTFSSFSMHWVRQAPGKGLEWVAVILYDGSNQYYADSVKGRFTISRDNSKNTLYLQMNTLRAEDTAMYYCAKSSSSHVNSRQDKWGQGTLVTVSS VL: EIVLTQSPSTLSASVGDRVTITCRASQSISRWLAWYQQKPGEAPKLLIHTASTLESGVPSRFSGSGSGTEFTLTINSLQPDDLATYYCQQYYNWWTFGQGTKVEIK", "observedValue": "> 10 µg/mL"}
{"binder": "ADI-19012 (antibody, V domains shown, full-length IgG; also called Antibody Number 360) VH: EVQLVESGPGLVKPSGTLSLTCAVSGDSIVGSDWWSWIRQPPGKGLEWIGDIYHGGTTSYNPSLKSRVTMSVDKSKNQFSLKLTSVTAADTAVYYCARLSGNCSGGSCYSPFDHWGQGTLVTVSS VL: DIQMTQSPSSLSASVGDRVTITCRASQTINGYLNWYQQRPGKAPKLLISAASSLQSGVPSRFRGSGYGTDFTLTISSLQPEDFATYFCQQSYNTVYTFGQGTKVDIK", "observedValue": "> 10 µg/mL"}
{"binder": "ADI-19010 (antibody, V domains shown) VH: EVQLVESGGGLVKPGGSLRLSCAASGFTFSSYSMNWVRQAPGKGLEWVSSISSSSSYIYYADSVKGRFTISRDNAKNSLYLQMNSLRAEDTAVYYCARDVQYSGYDSGYYFDYWGQGTLVTVSS VL: QPVLTQPPSVSGAPGQRVTISCTGSSSNIGAGYDVHWYQQLPGTAPKLLIYGNSNRPSGVPDRFSGSKSGTSASLAITGLQAEDEADYYCQSYDSSLSALYVFGTGTKVTVL", "observedValue": "> 10 µg/mL"}
